Molecular target: T1, human ST2L (human, UniProt Q01638 19-328, limits assumed)
T1 construct: also called IL-1R4; IL-33Ra
T1 sequence (looked up): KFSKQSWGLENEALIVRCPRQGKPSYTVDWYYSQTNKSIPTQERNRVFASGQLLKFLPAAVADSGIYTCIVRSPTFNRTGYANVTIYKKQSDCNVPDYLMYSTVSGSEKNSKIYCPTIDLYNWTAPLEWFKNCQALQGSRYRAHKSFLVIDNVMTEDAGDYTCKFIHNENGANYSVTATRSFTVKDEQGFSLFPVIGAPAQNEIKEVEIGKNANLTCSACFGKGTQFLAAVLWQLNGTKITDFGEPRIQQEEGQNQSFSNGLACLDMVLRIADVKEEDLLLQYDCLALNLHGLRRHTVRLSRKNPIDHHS
Test: affinity table; method not stated
property-name: pKd
In simple prose, pKd is minus the logarithm base ten of a concentration in moles per litre.

Consider the following illustrative entries.
>  <binder>
STLM218 (antibody, from another filing, V domains shown) VH: EVQLLESGGGLVQPGGSLRLSCAASGFTFSVDSMFWVRQAPGKGLEWVSSIEGNGGATYYADSVKGRFTISRDNSKNTLYLQMNSLRAEDTAVYYCARDPWSTEGSFFVLDYWGQGTLVTVSS VL: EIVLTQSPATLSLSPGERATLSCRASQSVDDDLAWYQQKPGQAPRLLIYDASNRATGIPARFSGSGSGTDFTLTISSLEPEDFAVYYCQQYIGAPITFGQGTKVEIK

>  <property-name>
pKd

>  <value-measured>
10.64

$$$$
>  <binder>
STLM206 (antibody, from another filing, V domains shown) VH: EVQLLESGGGLVQPGGSLRLSCAASGFTFSIYDMIWVRQAPGKGLEWVSTIRGEGGSTYYADSVKGRFTISRDNSKNTLYLQMNSLRAEDTAVYYCARDPWSTEGSFFVLDYWGQGTLVTVSS VL: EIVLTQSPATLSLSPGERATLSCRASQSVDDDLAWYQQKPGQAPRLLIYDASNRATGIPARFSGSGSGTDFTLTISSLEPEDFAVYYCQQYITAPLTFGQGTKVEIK

>  <property-name>
pKd

>  <value-measured>
10.60

$$$$

The binder STLM213 (antibody, from another filing, V domains shown) VH: EVQLLESGGGLVQPGGSLRLSCAASGFTFSFYDMIWVRQAPGKGLEWVSTIRGEGGDTNYADSVKGRFTISRDNSKNTLYLQMNSLRAEDTAVYYCARDPWSTEGSFFVLDYWGQGTLVTVSS VL: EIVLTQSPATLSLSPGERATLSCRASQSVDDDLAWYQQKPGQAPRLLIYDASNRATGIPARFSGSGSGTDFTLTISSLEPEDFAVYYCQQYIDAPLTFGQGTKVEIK showed pKd equal to 10.85

Data credit: patent US20190202907A1
